// provenance: the RNAGym collection of RNA variant scans (doi:10.7554/elife.80360)

B1: HDV Ribozyme (parent)
chain: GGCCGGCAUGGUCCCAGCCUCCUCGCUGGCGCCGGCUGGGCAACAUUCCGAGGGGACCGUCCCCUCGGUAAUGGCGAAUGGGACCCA

# Variants of: B1
# assay.overview: self-cleavage, relative activity (ratio to wild type); higher = more cleavage; co-transcriptional
Items are presented alongside their recorded self-cleavage.

GGCCGGGAUGGUCCCAGCCUCCUCGCUGGCGCCGGCUGGGCAACAUUCCGAGGGGACCGUACCCUCGGUAAUGGCGAAUGGGACCCA [C7G C61A] | 0.486
GGCCGGCAUGGUCCCUGCCUCCUCGCUGGCGCCGGCUGGGCAACAUUACGAGGGGACCGUCCCCUCGGUAAUGGCGAAUGGGACCCA [A16U C48A] | 1.07
GGCCGGCAUGGUCCCAGCCUCCUCGUUGGCGCCGGCUGGGCAACAUUCCGAGGGGACCGUCCCCUCGGUAAUGGCGAAGGGGACCCA [C26U U79G] | 1.03

Now consider the entry below.
variant GGCCGGCAUGGUCCCAGCCUCCUCGCUGGCGCCGGCUGGGCAACAUUCCGAGGGGACCUUCCCCUCGGUAAUGGGGAAUGGGACCCA [G59U C75G] , self-cleavage observed: 0.123
